- Tested on: 966289-007-R4-J1-PDC complex spheroid viability
- METHOD: Anticancer human tumor 966289-007-R4-J1-PDC patient-derived pancreatic adenocarcinoma cell line growth inhibition [GQUAD]
- SETUP_CONDITIONS: second compound 0.0316 µM; first compound 3.16 µM; active compounds read low
MEASUREMENT_KIND: viability, T/C (%)

[[record]]
molecule = "Cc1cccc(N(C)C(=O)C2C(O)CCN2c2nc(C)cc(C(F)(F)F)c2C#N)c1 (centres undefined) + Cc1[nH]c2ccc(F)cc2c1-c1nc2c3cccnc3c3ncccc3c2[nH]1"
reading = 106

[[record]]
molecule = "O=C(c1cc(Cc2n[nH]c(=O)c3ccccc23)ccc1F)N1CCN(C(=O)C2CC2)CC1 + Cc1[nH]c2ccc(F)cc2c1-c1nc2c3cccnc3c3ncccc3c2[nH]1"
reading = 68.6

[[record]]
molecule = "C#Cc1c(F)ccc2cc(O)cc(-c3ncc4c(N5CC6CCC(C5)N6)nc(OCC56CCCN5CC(F)C6)nc4c3F)c12 (centres undefined) + Cc1cnc(CNC(=O)c2c(=O)c3ccc(N4CCCN(C)CC4)nc3n3c2sc2ccccc23)cn1"
reading = 122

[[record]]
molecule = "CC(C)n1c(=O)n(C)c2cnc3cc(F)c(-c4ccc(OCCCN5CCCCC5)nc4)cc3c21 + CN(C)c1ccc(Nc2c3ccc(NC(=O)CCN4CCCC4)cc3nc3cc(NC(=O)CCN4CCCC4)ccc23)cc1"
reading = 108


----------
- Tested on: 966289-007-R4-J1-PDC complex spheroid viability
- METHOD: Anticancer human tumor 966289-007-R4-J1-PDC cell line growth inhibition [GQUAD];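 further: spheroids exposed to the agents for seven days before readout; percent viability relative to DMSO vehicle control wells taken as 100%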
- SETUP_CONDITIONS: second compound 10 µM; first compound 0.1 µM; active compounds read low
viability, T/C: recorded values
MEASUREMENT_KIND: viability, T/C (%)

[[record]]
compound = "CC1COCCN1c1cc(C2(O)CC3CCC(C2)O3)c2cnn(-c3ccn[nH]3)c2n1 (stereo not given) + CN(C)c1ccc(Nc2c3ccc(NC(=O)CCN4CCCC4)cc3nc3cc(NC(=O)CCN4CCCC4)ccc23)cc1"
study_target = "966289-007-R4-J1-PDC complex spheroid viability"
reading = 37.3

[[record]]
compound = "O=C(c1cc(Cc2n[nH]c(=O)c3ccccc23)ccc1F)N1CCN(C(=O)C2CC2)CC1 + Cc1[nH]c2ccc(F)cc2c1-c1nc2c3cccnc3c3ncccc3c2[nH]1"
study_target = "966289-007-R4-J1-PDC complex spheroid viability"
reading = 103

[[record]]
compound = "CC(=O)O[C@H]1C(=O)[C@@]2(C)[C@H]([C@H](OC(=O)c3ccccc3)[C@]3(O)C[C@H](OC(=O)[C@H](O)[C@@H](NC(=O)c4ccccc4)c4ccccc4)C(C)=C1C3(C)C)[C@]1(OC(C)=O)CO[C@@H]1C[C@@H]2O + CN(C)c1ccc(Nc2c3ccc(NC(=O)CCN4CCCC4)cc3nc3cc(NC(=O)CCN4CCCC4)ccc23)cc1"
study_target = "966289-007-R4-J1-PDC complex spheroid viability"
reading = 2.35

[[record]]
compound = "C#Cc1c(F)ccc2cc(O)cc(-c3ncc4c(N5CC6CCC(C5)N6)nc(OCC56CCCN5CC(F)C6)nc4c3F)c12 (stereo not given) + CN(C)c1ccc(Nc2c3ccc(NC(=O)CCN4CCCC4)cc3nc3cc(NC(=O)CCN4CCCC4)ccc23)cc1"
study_target = "966289-007-R4-J1-PDC complex spheroid viability"
reading = 106

[[record]]
compound = "CCCS(=O)(=O)Nc1ccc(F)c(C(=O)c2c[nH]c3ncc(-c4ccc(Cl)cc4)cc23)c1F + Cc1[nH]c2ccc(F)cc2c1-c1nc2c3cccnc3c3ncccc3c2[nH]1"
study_target = "966289-007-R4-J1-PDC complex spheroid viability"
reading = 111

[[record]]
compound = "CC(C)n1c(=O)n(C)c2cnc3cc(F)c(-c4ccc(OCCCN5CCCCC5)nc4)cc3c21 + Cc1cnc(CNC(=O)c2c(=O)c3ccc(N4CCCN(C)CC4)nc3n3c2sc2ccccc23)cn1"
study_target = "966289-007-R4-J1-PDC complex spheroid viability"
reading = 0.12

[[record]]
compound = "Cc1cccc(N(C)C(=O)C2C(O)CCN2c2nc(C)cc(C(F)(F)F)c2C#N)c1 (stereo not given) + Cc1cnc(CNC(=O)c2c(=O)c3ccc(N4CCCN(C)CC4)nc3n3c2sc2ccccc23)cn1"
study_target = "966289-007-R4-J1-PDC complex spheroid viability"
reading = 0.18

[[record]]
compound = "CC1COCCN1c1cc(C2(S(C)(=N)=O)CC2)nc(-c2ccnc3[nH]ccc23)n1 (stereo not given) + Cc1[nH]c2ccc(F)cc2c1-c1nc2c3cccnc3c3ncccc3c2[nH]1"
study_target = "966289-007-R4-J1-PDC complex spheroid viability"
reading = 100

[[record]]
compound = "COc1cc(C2c3cc4c(cc3C(OC3OC5COC(C)OC5C(O)C3O)C3COC(=O)C23)OCO4)cc(OC)c1O (stereo not given) + Cc1cnc(CNC(=O)c2c(=O)c3ccc(N4CCCN(C)CC4)nc3n3c2sc2ccccc23)cn1"
study_target = "966289-007-R4-J1-PDC complex spheroid viability"
reading = 0.07

[[record]]
compound = "COc1cc(C2c3cc4c(cc3C(OC3OC5COC(C)OC5C(O)C3O)C3COC(=O)C23)OCO4)cc(OC)c1O (stereo not given) + CN(C)c1ccc(Nc2c3ccc(NC(=O)CCN4CCCC4)cc3nc3cc(NC(=O)CCN4CCCC4)ccc23)cc1"
study_target = "966289-007-R4-J1-PDC complex spheroid viability"
reading = 98.1

